Tested on: SEM cells
experiment summary: cell viability relative to DMSO control; higher = less cytotoxic
condition parameters: HPLM + 10% dialyzed FBS; 48 h; 0.00702 µM
# cell viability annotations
observable: cell viability (%)

1. Cc1cc2c(C(C)C)c(O)c(O)c(C=O)c2c(O)c1-c1c(C)cc2c(C(C)C)c(O)c(O)c(C=O)c2c1O | 105
2. COc1ccc(CCN2CCN(CCCc3ccccc3)CC2)cc1OC | 117
3. O=C([O-])Cc1ccccc1Nc1c(Cl)cccc1Cl | 110
4. Cc1c(C(=O)Nc2ccc(N3C[C@@H](C)O[C@@H](C)C3)nc2)cccc1-c1ccc(OC(F)(F)F)cc1 | 116
5. CNC(=O)[C@H](Cc1ccccc1)NC(=O)[C@H](CC(C)C)[C@H](CSc1cccs1)C(=O)NO | 90
6. CN[C@H](CC(C)C)C(=O)N[C@H]1C(=O)N[C@@H](CC(N)=O)C(=O)N[C@H]2C(=O)N[C@H]3C(=O)N[C@H](C(=O)N[C@H](C(=O)O)c4cc(O)cc(O)c4-c4cc3ccc4O)[C@H](O)c3ccc(c(Cl)c3)Oc3cc2cc(c3O[C@@H]2O[C@H](CO)[C@@H](O)[C@H](O)[C@H]2O[C@H]2C[C@](C)(N)[C@H](O)[C@H](C)O2)Oc2ccc(cc2Cl)[C@H]1O | 124
7. C\C1=N\N=C(\C2=CC=C(N)C=C2)C3=CC4=C(OCO4)C=C3C1 | 122
8. O=C(O)c1ccccc1C(=O)Nc1ccc(-c2ccccc2)cc1 | 117
9. C[C@@H](c1ncncc1F)[C@](O)(Cn1cncn1)c1ccc(F)cc1F | 118
10. CC1(C)[C@@H](O[C@H]2O[C@H](C(=O)O)[C@@H](O)[C@H](O)[C@H]2O[C@@H]2O[C@H](C(=O)O)[C@@H](O)[C@H](O)[C@H]2O)CC[C@]2(C)[C@H]3C(=O)C=C4[C@@H]5C[C@@](C)(C(=O)O)CC[C@]5(C)CC[C@@]4(C)[C@]3(C)CC[C@@H]12 | 117
11. CCCCN(CCCC)CCC(O)c1cc2c(Cl)cc(Cl)cc2c2cc(C(F)(F)F)ccc12 (stereo not drawn) | 84.3
12. Cc1ccc(-n2nc(C(C)(C)C)cc2NC(=O)Nc2ccc(OCCN3CCOCC3)c3ccccc23)cc1 | 91.9
13. Cc1cc(Nc2ncc(Cl)c(Nc3ccccc3[S+](=O)([O-])C(C)C)n2)c(OC(C)C)cc1C1CCNCC1 | 119

###

System: P12-Ichikawa
experiment summary: cell viability relative to DMSO control; higher = less cytotoxic
condition parameters: HPLM + 10% dialyzed FBS; 48 h; 0.0632 µM
Measured cell viability, listed per entry for reference.
observable: cell viability (%)

1) NC(=O)c1ccc(-c2nc(-c3ccc4c(c3)OCCO4)c(-c3ccccn3)[nH]2)cc1 | 122
2) O=C(O)[C@H](Cc1c[nH]c2ccccc12)N1C(=O)c2ccccc2C1=O | 99.5
3) COc1cc2nccc(Oc3ccc(NC(=O)Nc4ccc(F)cc4F)c(F)c3)c2cc1OC | 98.1
4) CN(C)Cc1ccc(-c2nc3cccc4c3n2CCNC4=O)cc1 | 109
5) C[C@@H]1CC[C@@]2(OC1)O[C@H]3C[C@H]4[C@@H]5C/C=C6/C[C@H](CC[C@]6(C)[C@H]5CC[C@]4(C)[C@H]3[C@@H]2C)O[C@@H]7O[C@H](CO)[C@@H](O[C@@H]8O[C@@H](C)[C@H](O)[C@@H](O)[C@H]8O)[C@H](O)[C@H]7O[C@@H]9O[C@@H](C)[C@H](O)[C@@H](O)[C@H]9O | 129
6) CCCCN(CCCC)CCC(O)c1cc2c(Cl)cc(Cl)cc2c2cc(C(F)(F)F)ccc12 (stereo not given) | 130
7) COc1cc2c(N3CCN(C(=O)Nc4ccc(OC(C)C)cc4)CC3)ncnc2cc1OCCCN1CCCCC1 | 91.3
8) O=C1\C=C(/OC2=C1C=CC=C2C3=CC=CC=C3)N4CCOCC4 | 96.3
9) CCOC(=O)Nc1ccc(NCc2ccc(F)cc2)cc1N | 115
10) COC[C@H](NC(=O)c1cnc(C)s1)C(=O)N[C@@H](COC)C(=O)N[C@@H](Cc1ccccc1)C(=O)[C@@]1(C)CO1 | 105

###

Test system: SEM cells
experiment summary: cell viability relative to DMSO control; higher = less cytotoxic
condition parameters: RPMI 5 mM glucose + 10% FBS; 48 h; 0.00702 µM
observable: cell viability (%)

1. C[C@H]1CN(C[C@@H](C)O1)CC(=O)NC2=CC=C3SC4=C(CC3=C2)C=CC=C4\C5=C\C(=O)\C=C(/O5)N6CCOCC6 | 14.3
2. Cc1ccc(-n2nc(C(C)(C)C)cc2NC(=O)Nc2ccc(OCCN3CCOCC3)c3ccccc23)cc1 | 104
3. Cc1ccc(NC(=O)c2ccc(CN3CCN(C)CC3)cc2)cc1Nc1nccc(-c2cccnc2)n1 | 134
4. Nc1ccccc1NC(=O)c1ccc(CNc2nccc(-c3cccnc3)n2)cc1 | 91.6
5. C[C@H](NC(=O)C(=O)Nc1ccccc1C(C)(C)C)C(=O)N[C@@H](CC(=O)O)C(=O)COc1c(F)c(F)cc(F)c1F | 117
6. CN1C(=O)\C(=C/C(=C1/NC2=C(F)C=C(I)C=C2)C(=O)NOCCO)C | 93.9
7. O=C1Nc2ccccc2/C1=C1\Nc2ccccc2C1=O | 90.6
8. Clc1ccc(C2(c3ccc(-c4cn[nH]c4)cc3)CCNCC2)cc1 | 110
9. CCOC(=O)C/1=C(C)/NC(=S)NC1C2=CC=CC(=C2)O (stereo not drawn) | 118
10. CNC(=O)[C@H](Cc1ccccc1)NC(=O)[C@H](CC(C)C)[C@H](CSc1cccs1)C(=O)NO | 96.3
11. COc1cc2ncnc(-n3nc(-c4ccccn4)nc3N)c2cc1OC | 114
12. O=C1CSC(=O)N1C(CCc1ccncc1)COc1ccc(-c2cccc([N+](=O)[O-])c2)cc1 (stereo not drawn) | 132
13. Cc1ccc(C(C)(O)c2nc3ccccc3s2)c(C)c1 (stereo not drawn) | 94.2
14. NC1CCC(N[C@@H]2C[C@H]2c2ccccc2)CC1 (stereo partly drawn) | 114
15. CC(C)(C)OC(=O)CN(Cc1ccc(Cl)cc1)Cc1ccc([N+](=O)[O-])s1 | 87.5
16. NC(=O)c1ccc(-c2nc(-c3ccc4c(c3)OCCO4)c(-c3ccccn3)[nH]2)cc1 | 96.3
17. Nc1nc(-c2nn(Cc3ccccc3F)c3ncccc23)nc(N)c1N1CCOCC1 | 103
18. CO/N=C(/C(=O)N[C@@H]1C(=O)N2C(C(=O)O)=C(Cn3ccc(=N)n3CCO)CS[C@H]12)c1csc(N)n1 | 130
19. COc1cc2nccc(Oc3ccc(NC(=O)Nc4cc(C)on4)c(Cl)c3)c2cc1OC | 79.9
20. O=C1\C=C(/OC2=C1C=CC=C2C3=CC=CC=C3)N4CCOCC4 | 111
21. C[N]1C=NC=C1[C@@](N)(C2=CC=C(Cl)C=C2)C3=CC=C4N(C)C(=O)\C=C(\C5=CC=CC(=C5)Cl)C4=C3 | 109
22. CCC[C@@H]1C[C@@H](C(=O)N[C@@H]([C@H]2O[C@H](SC)[C@H](O)[C@@H](O)[C@H]2O)[C@@H](C)O)N(C)C1.Cl | 105
23. O=[N+]([O-])c1cn2c(n1)OC[C@@H](OCc1ccc(OC(F)(F)F)cc1)C2 | 118

###

AUC of viability dose-response curve values by entry
Tested on: SEM cells
experiment summary: AUC of viability dose-response curve (% viability x log10 dose units); higher = less sensitive
condition parameters: HPLM + 10% dialyzed FBS; 48 h
observable: AUC of viability dose-response curve

1. O=C([O-])Cc1ccccc1Nc1c(Cl)cccc1Cl | 442
2. C[C@H]1O[C@H](O[C@H]2[C@H](O)[C@@H](O)[C@H](O[C@@H]2CO)O[C@H]3[C@H](O)[C@@H](O)C(O)O[C@@H]3CO)[C@H](O)[C@@H](O)[C@@H]1N[C@H]4\C=C(CO)/[C@@H](O)[C@H](O)[C@H]4O (some centres undefined) | 437
3. COc1ccc2c(c[n+](C)c3c4cc5c(cc4ccc23)OCO5)c1OC | 407
4. O=c1cc(O)c(Cl)c[nH]1 | 455
5. CC(C)(C)/[N+]([O-])=C/c1ccc([S+](=O)([O-])[O][Na])cc1[S+](=O)([O-])[O][Na] | 438
6. COc1nc(-c2ccc3c(c2)OCO3)n(-c2ccc(NC(=O)CSc3ccccc3)cc2)n1 | 457
7. CC1SC/2=C(C(O)=O)/C(=O)C3=CC(=C(C=C3N12)N4CCN(CC4)C\C5=C(C)\OC(=O)O5)F (centres undefined) | 472
8. Cc1ccc(NC(=O)C2(c3ccc4c(c3)OC(F)(F)O4)CC2)nc1-c1cccc(C(=O)O)c1 | 241
9. O=C(NC1CCOCC1)c1ccc(-c2cc(-c3c[nH]nc3-c3ccccn3)ccn2)cc1 | 464
10. C[C@@H]1C[C@H]2[C@@H]3\C=C(C)/C4=C/C5=C(C[C@]4(C)[C@H]3[C@@H](O)C[C@]2(C)[C@@]1(O)C(=O)COC(C)=O)C=N[N]5C6=CC=CC=C6 | 304
11. Cc1ccc(-n2nc(C(C)(C)C)cc2NC(=O)Nc2ccc(OCCN3CCOCC3)c3ccccc23)cc1 | 403
12. NC1CCC(N[C@@H]2C[C@H]2c2ccccc2)CC1 (some centres undefined) | 409
13. CCC(=O)O[C@@]1([C@@H](C)C[C@H]2[C@@H]3CCC/4=C/C(=O)/C=C\[C@]4(C)[C@@]3(F)[C@@H](O)C[C@]12C)C(=O)CCl | 339
14. Cl.c1cnc2cc3c(cc2n1)C1CNCC3C1 | 458

These entries and their values trace back to the supplement of paper PMC11451515.
